Test system: SF-295 CNS
MEASUREMENT PROTOCOL: NCI tumour cell line growth inhibition, 48 h
READOUT LABEL: GI50

Worked cases, answers included:
COc1ccc(-c2nc(-c3ccc(C)cc3)cn3ccnc23)cc1
3690 nM
COc1ncc(Nc2ncc([C@@H](C)N3CCN(S(C)(=O)=O)CC3)cc2-c2nc(C)nc(N)n2)cc1F
28.7 nM

Please turn your attention to the following entry.
*Q* Which GI50 reading was recorded for the compound CCC(C)[C@H](NC(=O)Nc1cc(C(F)(F)F)cc(C(F)(F)F)c1)C(=O)N[C@@H](Cc1cn(C)cn1)C(=O)OC (stereo partly drawn) ?
*A* 1360 nM

----------
Test system: ACHN renal
MEASUREMENT PROTOCOL: NCI tumour cell line growth inhibition, 48 h
READOUT LABEL: TGI

Worked cases, answers included:
O=C(CSc1nc(-c2ccccc2)c(-c2ccccc2)[nH]1)N/N=C/c1ccc(O)cc1
55.9 µM
CC(C)(C)c1cc(OCc2nn3c(Cc4ccccc4)nnc3s2)c(Cl)cc1OCc1nn2c(Cc3ccccc3)nnc2s1
> 100 µM
COC(=O)c1ccc(C)cc1CC1Cc2ccc(C)cc2C1=O (stereo not given)
80.8 µM
CCc1ccc(CCC(=O)Nc2ncc(Cc3ccc(Cl)cc3)s2)o1
> 100 µM

*Q* Which TGI reading was recorded for the compound Nc1ncn2c(n1)nc1ccccc12 ?
*A* > 100 µM

----------
# reported TGI; entries follow
Test system: COLO 205 colon
MEASUREMENT PROTOCOL: NCI tumour cell line growth inhibition, 48 h

Worked cases, answers included:
O=C(/C=C(\S/C=C(/c1ccccc1)N1CCn2c(C(=O)c3ccccc3)c(C(=O)c3ccccc3)c(C(=O)c3ccccc3)c21)C(=O)c1ccccc1)c1ccccc1
> 10 µM
Cc1ccc(C(=O)Nc2ccc(CP(=O)(O)O)cc2CP(=O)(O)O)cc1NC(=O)Nc1cc(C(=O)Nc2ccc(CP(=O)(O)O)cc2CP(=O)(O)O)ccc1C
> 100 µM

Please turn your attention to the following entry.
*Q* Find TGI (COLO 205 colon) for the entry CC1/C(=N\O)CC(c2ccccc2)N(C)C1c1ccccc1 (stereo not drawn)
*A* > 100 µM

----------
System: OVCAR-8 ovarian
MEASUREMENT PROTOCOL: NCI tumour cell line growth inhibition, 48 h
READOUT LABEL: TGI

Worked cases, answers included:
O=C1/C=C(/c2ccc(O)cc2)[C@@H](O)Cc2ccc(O)cc2O1
> 100 µM
O=C1C(Cl)=C(N(C(=O)c2ccccc2)C(=O)c2ccccc2)C(=O)c2ccccc21
> 100 µM
CCOC(=O)c1cc2c(cc1Cl)SC(=Nc1ccccc1)N(S(=O)(=O)c1ccc(Cl)cc1)S2(=O)=O
59.6 µM

*Q* Which TGI reading was recorded for the compound C=C1CC(Cn2ccc(=O)[nH]c2=O)(c2ccc(Cl)cc2)OC1=O (stereo not given) ?
*A* 24.5 µM

*Q* Input CC(C)(C)OC(=O)CN1CCNCCN(CC(=O)OC(C)(C)C)CCNCC1
*A* > 100 µM

----------
# reported TGI; entries follow
Test system: NCI/ADR-RES ovarian
MEASUREMENT PROTOCOL: NCI tumour cell line growth inhibition, 48 h

Worked cases, answers included:
CCCCCCCCCCCCCCCCOP(=O)(O)OCC(N)C(=O)O (stereo not given)
> 100 µM
Cn1ncc2c(Cl)ncnc21
> 100 µM
COc1cc(/C=C/C(=O)/C=C/c2ccc(-n3ccnc3C)cc2)ccc1O
> 100 µM

*Q* Which TGI reading was recorded for the compound Nc1nc([Se])c2ncn(C3OC(CO)C(O)C3O)c2n1 (stereo not given) ?
*A* > 100 µM

*Q* Input CN(C)c1ccc(/C=C(\NC(=O)c2ccccc2)C2=NC(CCC(=O)O)C(=O)O2)cc1 (stereo not given)
*A* > 50 µM
